Provenance of the data: ChEMBL document CHEMBL1201862

- Test system: RPMI-8226
- ASSAY: NCI tumour cell line growth inhibition, 48 h
Calls of active or inactive are those of the source. No stated cut-off is given here; in the data, active = GI50 up to about 1.1 µM and inactive = higher.
Answer with one of the outcomes active, inactive

Tell me the recorded outcome of this test for Cc1ccccc1NC(=O)c1cc2cc(/N=N/c3ccccc3C(=O)O)ccc2oc1=O . inactive

Outcome logged for N#Cc1ccc(C2Oc3ccc(Cl)cc3C=C2[N+](=O)[O-])cc1 (centres undefined) in this assay: active

Check the results log: what was the call for Cc1cc(=O)cc2sc3cc(Cl)ccc3nc1-2 ? inactive

Per the records of this test, what outcome belongs to CC(=O)Oc1ccc(-c2cc3ccccc3oc2=O)cc1OC(C)=O ? inactive

Write down the call the test reported for this compound. Item: CN1Cc2c(ccc3c2OCO3)[C@@H]2[C@H](O)Cc3cc4c(cc3[C@@H]21)OCO4 inactive

Given COC(=O)/N=[N+](\[O-])C(c1ccc(OC)cc1)C1CCCCC1 (centres undefined) , state the outcome it received in this test. active

Which outcome did this test record for the compound CCCCOC(=O)NC(=O)c1cn(C2CCCCC2)c(=O)[nH]c1=O ? inactive

Each compound tested received a call. Report the one for COc1cc2c(c3c1c(=O)c1ccccc1n3C)C=CC(C)(C)O2 . inactive

Could you check what this test reported for C=C(C)[C@@]1(O[Si](C)(C)C)CCCC[C@@H]1CC(Sc1ccccc1)Sc1ccccc1 ? inactive

Can you look up the reported call for SC1=Nc2ccccc2-c2nc(-c3ccccc3)cc(-c3ccc(Br)cc3)c2C1 for me? inactive

Please state the recorded outcome for this compound: O=C(OC1CCC2OOC1O2)c1ccc([N+](=O)[O-])cc1 (centres undefined) inactive

How did this test come out for O=C(N1CCN(c2ccccc2)CC1)N(C(=O)C1(c2ccc(Cl)cc2)CCCC1)S(=O)(=O)c1ccccc1 ? inactive

Tell me the recorded outcome of this test for O=[N+]([O-])c1ccc(OCc2nnc(CCCCCCCCc3nnc(COc4ccc([N+](=O)[O-])cc4)o3)o2)cc1 . inactive

Any idea what this test logged for COC1=CC(=O)c2c(cc3c(c2O)-c2c(OC)cc4cc5c(c(O)c4c2OC(=O)CC(C)(O)C3)C(=O)CC(C)(O)C5)C1=O (centres undefined) ? inactive

How was O=C(O)C1CCN(Cc2oc(CO)cc(=O)c2O)C1 (centres undefined) classified in this test? inactive

Tell me the recorded outcome of this test for O=C(COC(=O)c1cccc2c(=O)c3ccccc3[nH]c12)Nc1ccccc1 . inactive

Could you please tell me the result logged for CCOc1cc2c(cc1O)/C(=N/NS(=O)(=O)c1ccc(C)cc1)C[C@@H]1[C@@H]2CC[C@]2(C)[C@@H](O)CC[C@@H]12 in this assay? inactive

Dear colleague, could you share the recorded outcome for O=c1[nH]c2ccc(CC(=S)N3CCN(c4ccccc4)CC3)cc2s1 when you have a moment? inactive

Would you mind telling me which call this test gave O=c1[nH]c2cc([N+](=O)[O-])c(N/N=C/c3ccc(Cl)cc3Cl)c([N+](=O)[O-])c2[nH]1 ? inactive

----------
- Test system: OVCAR-5
- ASSAY: NCI tumour cell line growth inhibition, 48 h
Calls of active or inactive are those of the source. Rule as the data show it: active = GI50 up to about 1.1 µM and inactive = higher.
Please go through the items and note down their GI50.

Form field: reported GI50 of O=C1c2ccccc2-c2cccc3ccc(Cc4ccccc4)c1c23 > 100 µM (inactive)

Item under review: CC1(C)CCC[C@]2(C)[C@@H]1CC[C@@]13O[C@@H]1C1=C(CO)C(=O)O[C@]14O[C@@H]4[C@@H]23 . Reported GI50? 15.7 µM (inactive)

For CCCCN(CCCC)CC(=O)c1ccc2cc(Cl)c3ccccc3c2c1 , what is its reported GI50? 51.1 µM (inactive)

Look up GI50: O=[N+]([O-])c1ccc2nc(/C(=N/Nc3ccccc3)C(O)c3ccc(Cl)cc3Cl)c(O)nc2c1 (configuration not stated) > 100 µM (inactive)

What does the record list as GI50 for COc1ccc(-c2cc(-c3cc(F)c(Cl)cc3Cl)[nH]n2)cc1OC ? > 100 µM (inactive)

GI50 for COC(=O)c1ccc(Nc2nc3[nH]cnc3c(=O)[nH]2)cc1 ? > 100 µM (inactive)

# GI50 lookup, item Cc1cc2c(c3nocc13)C(=O)c1ccccc1C2=O > 100 µM (inactive)

Looking for the measured GI50 of CCCCNC(=O)N/C=C1\C(=O)Oc2ccccc2C1=O , can you help? 68.5 µM (inactive)

So what's the measured GI50 for this one? CCCCCCCCCCCCOCC1(COCCCCCCCCCCCC)COC(c2ccc(N)cc2)OC1 > 100 µM (inactive)

Quick check: GI50 of COc1ccc(OC)c(NCC(=O)Nn2cnc3ccc(S(=O)(=O)Nc4cc(OC)ccc4OC)cc3c2=O)c1 ? > 100 µM (inactive)

Dear colleague, I am looking for the recorded GI50 of the following compound: C=C(C)[C@@H]1CC[C@]2(CO)CC[C@]3(C)[C@H](CC[C@@H]4[C@@]5(C)CC[C@H](O)C(C)(C)[C@@H]5CC[C@]43C)[C@@H]12 [BETULIN] 55.7 µM (inactive)

// query GI50 value for entry CN1CCCCC(C#N)(c2ccccc2)CC1 (configuration not stated) > 100 µM (inactive)

May I ask what GI50 has been recorded for [N-]=[N+]=NC1C(Br)C(=O)NC(=O)N1[C@H]1C[C@H](O)[C@@H](CO)O1 (some centres not stated) ? > 100 µM (inactive)

Could you tell me which GI50 is on file for CC1CC[P+](c2ccccc2)(c2ccccc2)c2c1ccc1ccccc21 (configuration not stated) ? 5.26 µM (inactive)

What value of GI50 has been recorded for this entry: O=C1CCC23CC(C=CC=C12)n1c(=O)n(-c2ccccc2)c(=O)n13 (configuration not stated) > 100 µM (inactive)

Please give the measured GI50 for this compound: COC(=O)C(CCCN1C(=O)c2ccccc2C1=O)C(=O)OC > 100 µM (inactive)

# GI50 lookup, item CC(=O)C(C(C)=O)[C@@H]1OC(C)(C)O[C@@H]1[C@H]1COC(C)(C)O1 87.9 µM (inactive)

Which GI50 reading was recorded for the compound Cc1cc2c([nH]c3ccccc32)c2c1OC(C)(C)C1C3CC(C)(C)Oc4c(C)cc5c6ccccc6n(c5c43)C21 (configuration not stated) ? > 100 µM (inactive)

Entry under review: ClCCCCOC1CCCCO1 (configuration not stated) . Reported GI50? > 100 µM (inactive)

So what does the record say about GI50 for COc1cc2c(cc1O)CN1CCC23C=C[C@@H](O)CC13 (some centres not stated) ? > 100 µM (inactive)

Param item = O=C1/C(=C\c2cccs2)Oc2ccccc21 ; retrieve measured GI50. > 100 µM (inactive)

Please report the recorded GI50 for N#CCN1c2ccccc2CCC1Cl (configuration not stated) . > 10 µM (inactive)

Report GI50 for CC[C@@H]1/C=C/C=C/C[C@H](C)[C@@H](O)[C@](C)(O)C(=O)[C@H](C)[C@@H](O)[C@H](C)C(=O)[C@H](C)[C@@H](O)[C@H](C)/C=C/C(=O)O[C@H]2[C@@H](C)[C@@H](CC1)O[C@@]1(CC[C@@H](C)[C@@H](CC(C)O)O1)[C@@H]2C (some centres not stated) please. 1.68 µM (inactive)

Please report the recorded GI50 for CC(C)(C)c1cc2c(OC/C=C/c3ccccc3)c(c1)Cc1cc(C(C#N)(OC/C=C/c3ccccc3)OC/C=C/c3ccccc3)cc(c1OC/C=C\c1ccccc1)Cc1cc(C(C)(C)C)cc(c1OC/C=C/c1ccccc1)Cc1cc(C(C#N)(OC/C=C\c3ccccc3)OC/C=C/c3ccccc3)cc(c1OC/C=C\c1ccccc1)C2 (configuration not stated) . > 100 µM (inactive)

Item under review: O=C(N1CCN(c2ccccc2)CC1)N(C(=O)C1(c2ccc(Cl)cc2)CCCC1)S(=O)(=O)c1ccccc1 . Reported GI50? 24.8 µM (inactive)

Which GI50 value is on record for C=C1C(C2(C)C=CC(=O)OC3(C)COC(=O)CC32)C(OC=O)C(OC(=O)C(O)C(C)CC)C2(C)C(c3ccoc3)CC(OC(C)=O)C12O (configuration not stated) ? > 100 µM (inactive)

Which GI50 value is on record for COc1ccc(C2C3=C(COC3=O)OC(C)(C)Oc3cc4c(cc32)OCO4)cc1 (configuration not stated) ? 56.8 µM (inactive)

Fill in the blank: the reported GI50 of Brc1ccc(CCNCCN2CCCCC2)cc1 is ____. 17 µM (inactive)

GET /values?readout=GI50&item= COc1ccc2nc3cc([N+](=O)[O-])ccc3c(NNc3ccc(Cl)cc3)c2c1 2.31 µM (inactive)

I would be grateful if you could share the reported GI50 for CC12CC(c3ccccc3O1)C(C(=O)Nc1ccc(F)cc1)C(=O)N2 (configuration not stated) . > 100 µM (inactive)

Field request: GI50 | item: C=CCOC(=O)Cn1ccc(=O)[nH]c1=O > 100 µM (inactive)

What measured GI50 goes with CNC(=S)Nc1sc2c(c1C#N)CCCC2 ? > 75 µM (inactive)

// GI50 lookup, key: Cc1cc([N+](=O)[O-])ccc1Nc1cccc(Cl)c1C 14.7 µM (inactive)

Look up GI50 for this compound: O=c1[nH]c2cc([N+](=O)[O-])c(N/N=C/c3ccc(Cl)cc3Cl)c([N+](=O)[O-])c2[nH]1 70 µM (inactive)

// returns reported GI50 for input CC(C)=CCC(O)[C@](C)(O)[C@H]1[C@H](O)C[C@@]2(C)[C@@H]3CCc4cc(O)c(OC5OC(CO)C(O)C(O)C5O)cc4C3(C)C(=O)C[C@]12C (some centres not stated) > 100 µM (inactive)

Value lookup for GI50; key = CC1=C2C(=CC(C)(C)[C@@H]2O)C(=O)[C@](C)(O)C12CC2 [ILLUDIN M] 0.0183 µM (active)

Endpoint output: GI50 of COc1cccc(N(CN2C(=O)CCC2OC)C(C)=O)c1 (configuration not stated) . Value? > 100 µM (inactive)
